Data origin, for the record: patent US20190352423A1

Target: CD63 on cells (human) (UniProt P08962)
Sequence (P08962 2-238): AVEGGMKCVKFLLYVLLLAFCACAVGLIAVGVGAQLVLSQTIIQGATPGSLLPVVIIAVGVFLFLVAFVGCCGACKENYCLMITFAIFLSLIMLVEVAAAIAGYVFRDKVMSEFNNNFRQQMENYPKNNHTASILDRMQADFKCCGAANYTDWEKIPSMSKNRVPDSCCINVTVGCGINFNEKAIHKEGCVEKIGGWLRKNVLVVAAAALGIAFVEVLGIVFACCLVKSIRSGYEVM
Assay: cell-based or functional assay
Observed Property: IC50 of cytotoxicity, Colo205 cells (CellTiter-GLO, 4 days) (µg/mL)

>  <Binder>
bsCD63xb12-Duo3 with CD63 variant LV49H (bispecific antibody, part only; not given: b12 control arm, V domains shown, part only) VH: EVQLQQSGPELVKPGASVKMSCKASGYTFTSYVMHWVRQTPGQGLEWIGYITPYNDGTKYNEKFKGKATLTSDKSSSTAYMELSSLTSEDSAVYYCVGGDNYYYAMDYWGQGTSVTVSAA VL: NIMVTQSPSSLAVSAGEKVTMSCKSSQSHLYSSNQKNYLAWYQQKPGQSPKLLIYWASTRVSGVPDRFTGSGSGTDFTLTISRVQAEDLAVYYCHQYFSSFTFGSGTKLEIKRT

>  <Value>
10

$$$$
>  <Binder>
bsCD63xb12-Duo3 with CD63 variant Y127 (bispecific antibody, part only; not given: b12 control arm VH and VL, V domains shown, part only) VH: EVQLQQSGPELVKPGASVKMSCKASGYTFTSYVMHWVRQTPGQGLEWIGYITPYNDGTKYNEKFKGKATLTSDKSSSTAYMELSSLTSEDSAVYYCVGGDNYYYAMDHWGQGTSVTVSAA VL: NIMVTQSPSSLAVSAGEKVTMSCKSSQSVLYSSNQKNYLAWYQQKPGQSPKLLIYWASTRVSGVPDRFTGSGSGTDFTLTISRVQAEDLAVYYCHQYFSSFTFGSGTKLEIKRT

>  <Value>
1.89

$$$$
>  <Binder>
bsHER2xCD63-Duo3 with CD63 variant LS52 (bispecific antibody, part only; not given: HER2 arm (IgG1-153) VH and VL, V domains shown, part only) VH: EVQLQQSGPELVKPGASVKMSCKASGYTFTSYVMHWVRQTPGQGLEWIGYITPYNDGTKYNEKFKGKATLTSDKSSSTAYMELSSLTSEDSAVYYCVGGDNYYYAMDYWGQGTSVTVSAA VL: NIMVTQSPSSLAVSAGEKVTMSCKSSQSVLYHSNQKNYLAWYQQKPGQSPKLLIYWASTRVSGVPDRFTGSGSGTDFTLTISRVQAEDLAVYYCHQYFSSFTFGSGTKLEIKRT

>  <Value>
0.567

$$$$
>  <Binder>
bsCD63xb12-Duo3 with CD63 variant Y121H (bispecific antibody, part only; not given: b12 control arm VH and VL, V domains shown, part only) VH: EVQLQQSGPELVKPGASVKMSCKASGYTFTSYVMHWVRQTPGQGLEWIGYITPYNDGTKYNEKFKGKATLTSDKSSSTAYMELSSLTSEDSAVYYCVGGDNHYYAMDYWGQGTSVTVSAA VL: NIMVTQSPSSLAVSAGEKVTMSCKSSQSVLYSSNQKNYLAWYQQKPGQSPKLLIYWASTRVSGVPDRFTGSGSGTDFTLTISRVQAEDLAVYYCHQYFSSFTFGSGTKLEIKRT

>  <Value>
10

$$$$
>  <Binder>
bsCD63xb12-Duo3 with CD63 variant T71H (bispecific antibody, part only; not given: b12 control arm, V domains shown, part only) VH: EVQLQQSGPELVKPGASVKMSCKASGYTFTSYVMHWVRQTPGQGLEWIGYIHPYNDGTKYNEKFKGKATLTSDKSSSTAYMELSSLTSEDSAVYYCVGGDNYYYAMDYWGQGTSVTVSAA VL: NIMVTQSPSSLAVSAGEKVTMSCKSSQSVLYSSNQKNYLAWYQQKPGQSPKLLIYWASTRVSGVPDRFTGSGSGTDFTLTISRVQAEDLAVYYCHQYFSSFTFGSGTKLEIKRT

>  <Value>
10

$$$$
